molecular target: Human immunodeficiency virus type 1 reverse transcriptase (Human immunodeficiency virus 1, UniProt Q72547); test: In vitro HIV-1 RT inhibitory activity using rC.dG as template-primer
OUTCOME_MEASURE: IC50 (µM)
Answers are plain numbers, in µM.

Respectfully, I request IC50 for each entry included below.
1. COc1cc(NCc2nc3c(Cl)ccc(Cl)c3o2)c(O)nc1C
2. CCOC(=O)c1cc(NCc2nc3ccccc3o2)c(=O)[nH]c1C
3. CCc1cc(N(C)Cc2nc3c(C)ccc(C)c3o2)c(=O)[nH]c1C
4. Cc1cc(C)c(NCc2nc3c(Cl)ccc(Cl)c3o2)c(=O)[nH]1

0.115
1.75
0.103
2.85
